pIC50: −log10 of the molar value. Structures can show the parent of a compound that is named as a salt.
This section lists pIC50 readings for Syk tyrosine kinase (Homo sapiens).
quantity_name: pIC50

compound: N#Cc1ccnc(Nc2cc(C3CC3)cc(-c3ccnc(N4CCCN(C(N)=O)CC4)c3)n2)c1 [Example 76, hydrochloride]
value: 7.30 to 8.30

compound: CN(C)C(=O)CCn1cnc2ccc(-c3cc(C4CC4)cc(Nc4cc(C#N)ccn4)n3)cc21 [Example 125, hydrochloride]
value: 6.30 to 7.30

compound: N#Cc1ccnc(Nc2cc(C3CC3)cc(-c3ccc4ncn([C@H]5CC[C@H](C#N)CC5)c4c3)n2)c1 [Example 176, hydrochloride]
value: 7.30 to 8.30

compound: N#Cc1ccnc(Nc2cc(C3CC3)cc(-c3ccc4ccnc(N5CCC(O)CC5)c4c3)n2)c1 [Example 164, hydrochloride]
value: 7.30 to 8.30

compound: N#Cc1ccnc(Nc2cc(C3CC3)cc(-c3cncc(CN4CCS(=O)(=O)CC4)c3)n2)c1 [Example 74, hydrochloride]
value: 7.30 to 8.30

compound: N#Cc1ccnc(Nc2cc(C3CC3)cc(-c3cncc(NC4CCNCC4)c3)n2)c1 [Example 85, hydrochloride]
value: > 8.30

compound: N#Cc1ccnc(Nc2cc(C3CC3)cc(-c3cncc(NCC4CCNCC4)c3)n2)c1 [Example 94, hydrochloride]
value: 7.30 to 8.30
